system: Avena sterilis; assay: Herbicidal activity against Avena sterilis accession P09 assessed as weed survival at 4 times field recommended herbicide dose; format: functional
METRIC: Survival (%)
Enter your answer as a number in %; do not include the unit.

The cases that follow already have their Survival on record.
COCc1cnc(C2=NC(C)(C(C)C)C(=O)N2)c(C(=O)O)c1 (stereo unspecified) [IMAZAMOX]: 0
CCO/N=C(\CC)C1=C(O)CC(c2c(C)cc(C)cc2C)CC1=O (stereo unspecified) [TRALKOXYDIM]: 20
COC(=O)C(C)Oc1ccc(Oc2ccc(Cl)cc2Cl)cc1 (stereo unspecified) [DICLOFOP-METHYL]: 80
CCc1cc(C)cc(CC)c1-c1c(OC(=O)C(C)(C)C)n2n(c1=O)CCOCC2 [PINOXADEN]: 0
C#CCOC(=O)[C@@H](C)Oc1ccc(Oc2ncc(Cl)cc2F)cc1 [CLODINAFOP PROPARGYL]: 20

Moving on to the next molecule.
Entry CCOC(=O)[C@@H](C)Oc1ccc(Oc2nc3ccc(Cl)cc3o2)cc1 [FENOXAPROP-P-ETHYL] : reported Survival = ?
80

---

test system: Avena sterilis; experiment: Herbicidal activity against Avena sterilis accession P22 assessed as weed survival at 16 times field recommended herbicide dose; assay type: functional
Measured Survival, listed per entry for reference.
Enter your answer as a number in %; do not include the unit.

COC(=O)C(C)Oc1ccc(Oc2ccc(Cl)cc2Cl)cc1 (stereo unspecified): 27
COCc1cnc(C2=NC(C)(C(C)C)C(=O)N2)c(C(=O)O)c1 (stereo unspecified): 0
CCO/N=C(\CC)C1=C(O)CC(c2c(C)cc(C)cc2C)CC1=O (stereo unspecified): 20
C#CCOC(=O)[C@@H](C)Oc1ccc(Oc2ncc(Cl)cc2F)cc1: 0
CCOC(=O)[C@@H](C)Oc1ccc(Oc2nc3ccc(Cl)cc3o2)cc1: 0

Moving on to the next compound.
Entry CCc1cc(C)cc(CC)c1-c1c(OC(=O)C(C)(C)C)n2n(c1=O)CCOCC2 : reported Survival = ?
0

---

Measured Survival, listed per entry for reference.
tested on: Avena sterilis; assay: Herbicidal activity against Avena sterilis accession P12 assessed as weed survival at 4 times field recommended herbicide dose; assay type: functional
Enter your answer as a number in %; do not include the unit.

CCc1cc(C)cc(CC)c1-c1c(OC(=O)C(C)(C)C)n2n(c1=O)CCOCC2: 0
CCO/N=C(\CC)C1=C(O)CC(c2c(C)cc(C)cc2C)CC1=O (stereo unspecified): 0
CCOC(=O)[C@@H](C)Oc1ccc(Oc2nc3ccc(Cl)cc3o2)cc1: 80
C#CCOC(=O)[C@@H](C)Oc1ccc(Oc2ncc(Cl)cc2F)cc1: 97
COCc1cnc(C2=NC(C)(C(C)C)C(=O)N2)c(C(=O)O)c1 (stereo unspecified): 0

Moving on to the next molecule.
Entry COC(=O)C(C)Oc1ccc(Oc2ccc(Cl)cc2Cl)cc1 (stereo unspecified) : reported Survival = ?
80

---

test system: Avena sterilis; assay: Herbicidal activity against Avena sterilis accession P07 assessed as weed survival at 16 times field recommended herbicide dose; type: functional
Measured Survival, listed per entry for reference.

The cases that follow already have their Survival on record.
C#CCOC(=O)[C@@H](C)Oc1ccc(Oc2ncc(Cl)cc2F)cc1 [CLODINAFOP PROPARGYL]: 0%
COC(=O)C(C)Oc1ccc(Oc2ccc(Cl)cc2Cl)cc1 (stereo unspecified) [DICLOFOP-METHYL]: 20%
CCO/N=C(\CC)C1=C(O)CC(c2c(C)cc(C)cc2C)CC1=O (stereo unspecified) [TRALKOXYDIM]: 0%
CCOC(=O)[C@@H](C)Oc1ccc(Oc2nc3ccc(Cl)cc3o2)cc1 [FENOXAPROP-P-ETHYL]: 80%
COCc1cnc(C2=NC(C)(C(C)C)C(=O)N2)c(C(=O)O)c1 (stereo unspecified) [IMAZAMOX]: 0%

Moving on to the next compound.
Entry CCc1cc(C)cc(CC)c1-c1c(OC(=O)C(C)(C)C)n2n(c1=O)CCOCC2 [PINOXADEN] : reported Survival = ?
0%

Cited source for all entries: ChEMBL document CHEMBL3046559
